System: Escherichia coli
assayName: minimum inhibitory concentration (MIC)
appliedConditions: isolate (source animal id): 113
compounds and their reported minimum inhibitory concentration
All answers are understood in µg/mL, so give the number only.

inputSmiles: CC[C@H]1OC(=O)C[C@@H](O)[C@H](C)[C@@H](O[C@@H]2O[C@H](C)[C@@H](O)[C@H](N(C)C)[C@H]2O)[C@@H](CCN2CCCCC2)C[C@@H](C)C(=O)/C=C/C(C)=C/[C@@H]1CN1CCCCC1
minimum inhibitory concentration [µg/mL]: 4

In the following, a different compound is considered.
Using the record for "CO/N=C(\C(=O)N[C@@H]1C(=O)N2C(C(=O)O)=C(CSC(=O)c3ccco3)CS[C@H]12)c1csc(N)n1" , state its measured minimum inhibitory concentration.
0.5
